Biological target: Cad1 (UniProt P24813)
Sequence: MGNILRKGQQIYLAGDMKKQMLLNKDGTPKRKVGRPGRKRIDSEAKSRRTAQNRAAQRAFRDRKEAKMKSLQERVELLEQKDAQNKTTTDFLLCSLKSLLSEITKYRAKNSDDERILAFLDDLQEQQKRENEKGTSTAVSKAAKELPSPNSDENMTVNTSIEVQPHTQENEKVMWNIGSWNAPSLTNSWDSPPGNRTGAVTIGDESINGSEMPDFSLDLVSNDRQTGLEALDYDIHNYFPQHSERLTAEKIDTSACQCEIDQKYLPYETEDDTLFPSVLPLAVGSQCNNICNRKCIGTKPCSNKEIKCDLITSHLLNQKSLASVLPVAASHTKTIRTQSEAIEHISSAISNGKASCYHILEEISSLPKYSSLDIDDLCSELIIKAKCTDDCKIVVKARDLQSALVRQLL
Test: PBM E-score (8-mer binding enrichment) (E-score (-0.5 to 0.5)); higher = stronger / more preferred TF binding
Conditions: protein concentration: 100 nM; construct: GST-full length
Over roughly 33,000 sequences, “E-score (-0.5 to 0.5)” has its median near -0.0014; the highest 2% begin near 0.25. Many of the other results were omitted from the sample, so the highest values are more common in it than they were.
Measured PBM E-score, listed per entry for reference.
reported-metric: PBM E-score

[[record]]
sequence_content = "ATTTGTTA"
tgt = "Cad1 (UniProt P24813)"
reported_metric = "PBM E-score"
assay_value = 0.203

[[record]]
sequence_content = "CACCTAGA"
tgt = "Cad1 (UniProt P24813)"
reported_metric = "PBM E-score"
assay_value = -0.156

[[record]]
sequence_content = "ATTTGTTC"
tgt = "Cad1 (UniProt P24813)"
reported_metric = "PBM E-score"
assay_value = 0.265

[[record]]
sequence_content = "CGTTCTGA"
tgt = "Cad1 (UniProt P24813)"
reported_metric = "PBM E-score"
assay_value = -0.16

[[record]]
sequence_content = "ATTTCTCC"
tgt = "Cad1 (UniProt P24813)"
reported_metric = "PBM E-score"
assay_value = -0.0308

[[record]]
sequence_content = "ATTTGTGC"
tgt = "Cad1 (UniProt P24813)"
reported_metric = "PBM E-score"
assay_value = 0.148

[[record]]
sequence_content = "GACTCTAA"
tgt = "Cad1 (UniProt P24813)"
reported_metric = "PBM E-score"
assay_value = -0.118

[[record]]
sequence_content = "CTGAGGGA"
tgt = "Cad1 (UniProt P24813)"
reported_metric = "PBM E-score"
assay_value = -0.0379

[[record]]
sequence_content = "ATTTGTCG"
tgt = "Cad1 (UniProt P24813)"
reported_metric = "PBM E-score"
assay_value = 0.147

[[record]]
sequence_content = "ATTTCTCA"
tgt = "Cad1 (UniProt P24813)"
reported_metric = "PBM E-score"
assay_value = 0.0134

[[record]]
sequence_content = "ATTTGTCC"
tgt = "Cad1 (UniProt P24813)"
reported_metric = "PBM E-score"
assay_value = 0.253


###

Target: Cad1 (UniProt P24813)
Sequence: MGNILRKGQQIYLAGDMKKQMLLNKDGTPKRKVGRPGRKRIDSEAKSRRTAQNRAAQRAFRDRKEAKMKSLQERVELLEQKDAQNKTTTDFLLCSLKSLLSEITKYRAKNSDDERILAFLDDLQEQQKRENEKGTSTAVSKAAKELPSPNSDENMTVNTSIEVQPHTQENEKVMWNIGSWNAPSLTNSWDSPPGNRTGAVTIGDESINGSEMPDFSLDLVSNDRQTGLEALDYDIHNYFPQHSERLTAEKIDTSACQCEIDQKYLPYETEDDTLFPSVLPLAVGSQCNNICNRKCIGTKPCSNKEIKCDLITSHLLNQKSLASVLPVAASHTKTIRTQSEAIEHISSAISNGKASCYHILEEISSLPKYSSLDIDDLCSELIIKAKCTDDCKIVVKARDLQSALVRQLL
Experiment: PBM E-score (8-mer binding enrichment) (E-score (-0.5 to 0.5)); higher = stronger / more preferred TF binding
Conditions: protein concentration: 100 nM; construct: GST-full length
In all, about 33,000 sequences were measured (“E-score (-0.5 to 0.5)”: median about -0.0014, highest 2% from about 0.25 on). What follows is part of a selection rich in the highest values, with near analogues and random picks from the rest.
reported-metric: PBM E-score

[[record]]
sequence_content = "GAGCTAGA"
assay_value = -0.178

[[record]]
sequence_content = "CGCCCTGC"
assay_value = -0.128

[[record]]
sequence_content = "CTATCAAA"
assay_value = 0.0734

[[record]]
sequence_content = "ATGTCAGC"
assay_value = 0.315

[[record]]
sequence_content = "ACATTGTC"
assay_value = 0.292

[[record]]
sequence_content = "GTATCAAA"
assay_value = 0.142

[[record]]
sequence_content = "AGCAATCG"
assay_value = 0.27

[[record]]
sequence_content = "TAGCGCCA"
assay_value = 0.0297

[[record]]
sequence_content = "ATGTCACA"
assay_value = 0.306

[[record]]
sequence_content = "TTATTAAA"
assay_value = 0.307

[[record]]
sequence_content = "GTGTCACA"
assay_value = 0.252

[[record]]
sequence_content = "GTTGGAGA"
assay_value = -0.0985

[[record]]
sequence_content = "AATTGGTC"
assay_value = 0.0715

[[record]]
sequence_content = "AGGAATTG"
assay_value = 0.0938

[[record]]
sequence_content = "TACTAATA"
assay_value = 0.285

[[record]]
sequence_content = "CGAAAAGA"
assay_value = 0.28

[[record]]
sequence_content = "CGCGAAGA"
assay_value = 0.273

[[record]]
sequence_content = "CTCAGCCC"
assay_value = -0.21

[[record]]
sequence_content = "CGCGCACA"
assay_value = 0.257

[[record]]
sequence_content = "CATGCGCG"
assay_value = 0.202

[[record]]
sequence_content = "ATCAGCAG"
assay_value = 0.191

[[record]]
sequence_content = "AATGCGCG"
assay_value = 0.305

[[record]]
sequence_content = "ATTAGGGC"
assay_value = -0.0576

[[record]]
sequence_content = "CGCGCAGC"
assay_value = 0.103

[[record]]
sequence_content = "TACTAGAA"
assay_value = 0.0443

[[record]]
sequence_content = "CACTAATA"
assay_value = 0.183

[[record]]
sequence_content = "ATATCAAG"
assay_value = 0.251

[[record]]
sequence_content = "CATGCGCA"
assay_value = 0.116

[[record]]
sequence_content = "CGTATGGC"
assay_value = 0.14

[[record]]
sequence_content = "CTGTCACA"
assay_value = 0.0656

[[record]]
sequence_content = "TGCCGCCA"
assay_value = 0.0461

[[record]]
sequence_content = "AACCAGAC"
assay_value = -0.0829

[[record]]
sequence_content = "AACTAAAA"
assay_value = 0.133

[[record]]
sequence_content = "CGCGAAGC"
assay_value = 0.219

[[record]]
sequence_content = "ATGTCAGA"
assay_value = -0.0566

[[record]]
sequence_content = "CTATCAAG"
assay_value = 0.0773

[[record]]
sequence_content = "AACTAATT"
assay_value = 0.217

[[record]]
sequence_content = "AGCAATCA"
assay_value = 0.216

[[record]]
sequence_content = "ACAGCCAA"
assay_value = 0.0312

[[record]]
sequence_content = "CGCACTTC"
assay_value = -0.184

[[record]]
sequence_content = "GGGTCGTA"
assay_value = -0.236

[[record]]
sequence_content = "GTTTGTAA"
assay_value = 0.137

[[record]]
sequence_content = "CCATTGTC"
assay_value = 0.00119

[[record]]
sequence_content = "AACGCCTG"
assay_value = 0.0294

[[record]]
sequence_content = "ATAATACA"
assay_value = 0.263

[[record]]
sequence_content = "ACGCACCC"
assay_value = -0.147

[[record]]
sequence_content = "CGACGTTC"
assay_value = -0.265

[[record]]
sequence_content = "GCCTTATA"
assay_value = -0.0929

[[record]]
sequence_content = "GCATATCA"
assay_value = 0.278

[[record]]
sequence_content = "CGACTTAA"
assay_value = 0.0481

[[record]]
sequence_content = "CGCGCACG"
assay_value = 0.0231

[[record]]
sequence_content = "GTGTCAAA"
assay_value = 0.163

[[record]]
sequence_content = "GAGGTGGC"
assay_value = -0.149

[[record]]
sequence_content = "CCTCAACA"
assay_value = 0.0958

[[record]]
sequence_content = "AATGCGCC"
assay_value = -0.00918

[[record]]
sequence_content = "GCAATACC"
assay_value = -0.0457

[[record]]
sequence_content = "ATAACTCC"
assay_value = 0.0565

[[record]]
sequence_content = "ACACCCTG"
assay_value = -0.133

[[record]]
sequence_content = "ATATCAAC"
assay_value = 0.253

[[record]]
sequence_content = "ATATCAGG"
assay_value = 0.00611

[[record]]
sequence_content = "CTTTGTAC"
assay_value = 0.0743

[[record]]
sequence_content = "ACTGCATC"
assay_value = -0.00501

[[record]]
sequence_content = "CCATATCA"
assay_value = -0.00962

[[record]]
sequence_content = "CTATCAAC"
assay_value = 0.219

[[record]]
sequence_content = "TTATCAAA"
assay_value = 0.3

[[record]]
sequence_content = "AACTTATT"
assay_value = 0.142

[[record]]
sequence_content = "TCCCGCGA"
assay_value = 0.0875

[[record]]
sequence_content = "GCAATACA"
assay_value = 0.291

[[record]]
sequence_content = "ATTGCGCC"
assay_value = -0.061

[[record]]
sequence_content = "GGCGCACA"
assay_value = 0.00969

[[record]]
sequence_content = "ATGTCACG"
assay_value = 0.0134

[[record]]
sequence_content = "CAATCAAC"
assay_value = 0.228

[[record]]
sequence_content = "AGAACAGC"
assay_value = 0.00791

[[record]]
sequence_content = "GCTGCCCC"
assay_value = -0.107

[[record]]
sequence_content = "ACATTATC"
assay_value = 0.274

[[record]]
sequence_content = "AGCGAACA"
assay_value = 0.195

[[record]]
sequence_content = "CCCTTTAA"
assay_value = -0.135

[[record]]
sequence_content = "AGTCGGAA"
assay_value = 0.0204

[[record]]
sequence_content = "ATTTGTAG"
assay_value = 0.0654

[[record]]
sequence_content = "AACTAATA"
assay_value = 0.351

[[record]]
sequence_content = "AGAAAATC"
assay_value = -0.0518

[[record]]
sequence_content = "AGCAATCC"
assay_value = -0.214

[[record]]
sequence_content = "AATGCGCA"
assay_value = 0.342

[[record]]
sequence_content = "GTATCAAC"
assay_value = -0.0681

[[record]]
sequence_content = "ATCACCAC"
assay_value = 0.245

[[record]]
sequence_content = "AATGCGCT"
assay_value = 0.0389

[[record]]
sequence_content = "GAATCAAA"
assay_value = 0.0378

[[record]]
sequence_content = "ATACTACA"
assay_value = 0.264

[[record]]
sequence_content = "ATTTGTAA"
assay_value = 0.411

[[record]]
sequence_content = "GAACATAC"
assay_value = 0.0334

[[record]]
sequence_content = "ACTGTCGA"
assay_value = 0.0753

